# Test system: LU-99A (Non-Small Cell Lung Carcinoma)
# test: combination Emax (second highest fraction inhibited in the dose matrix, 72 h); higher = more inhibition; extreme values may be limits of the assay
# combination Emax >= 0.3 gives condition met, anything below gives condition not met

• Cn1cnc2c(F)c(Nc3ccc(Br)cc3Cl)c(C(=O)NOCCO)cc21 [Selumetinib] + C[C@@H]1COCCN1C2=NC(=NC(=C2)C3(CC3)[S@](=N)(=O)C)C4=C5C=CNC5=NC=C4 [AZD6738] (first compound max 10 µM, 7x7, partner max 10 µM) = condition met
• CN(CCO)CC[C@H](CSc1ccccc1)Nc1ccc(S(=O)(=O)NC(=O)c2ccc(N3CCC([C@@H](O)c4ccccc4-c4ccc(Cl)cc4)CC3)cc2)cc1S(=O)(=O)C(F)(F)F [AZD4320] + Cc1cc2ncnn2cc1Nc1ncc2c(n1)n(C1CCOCC1)c(=O)n2C [AZD7648] (first compound max 1 µM, 7x7, partner max 10 µM) = condition met
• CC1(C)CCC(CN2CCN(c3ccc(C(=O)NS(=O)(=O)c4ccc(NCC5CCOCC5)c([N+](=O)[O-])c4)c(Oc4cnc5[nH]ccc5c4)c3)CC2)=C(c2ccc(Cl)cc2)C1 [Venetoclax] + Cn1cnc2c(F)c(Nc3ccc(Br)cc3Cl)c(C(=O)NOCCO)cc21 [Selumetinib] (first compound max 1 µM, 7x7, partner max 3 µM) = condition met
• Cc1c2c(nn1C)CSCc1cc(n(C)n1)CSc1cc(c3ccccc3c1)OCCCc1c(C(=O)O)n(C)c3c-2c(Cl)ccc13 [AZD5991] + C[C@@H](Nc1cc(F)cc(F)c1)c1cc(C(=O)N(C)C)cc2c(=O)cc(N3CCOCC3)oc12 [AZD8186] (first compound max 1 µM, 7x7, partner max 3 µM) = condition not met
• COc1cc2ncnc(Nc3ccc(F)c(Cl)c3)c2cc1OCCCN1CCOCC1 [Gefitinib] + CC(C)n1c(=O)n(C)c2cnc3cc(F)c(-c4ccc(OCCCN5CCCCC5)nc4)cc3c21 [AZD1390] (first compound max 10 µM, 7x7, partner max 0.3 µM) = condition not met
• CN(CCO)CC[C@H](CSc1ccccc1)Nc1ccc(S(=O)(=O)NC(=O)c2ccc(N3CCC([C@@H](O)c4ccccc4-c4ccc(Cl)cc4)CC3)cc2)cc1S(=O)(=O)C(F)(F)F [AZD4320] + C1CN(CCC1(C(=O)N[C@@H](CCO)C2=CC=C(C=C2)Cl)N)C3=NC=NC4=C3C=CN4 [Capivasertib] (first compound max 1 µM, 7x7, partner max 3 µM) = condition met

###

# Test system: CAL-78 (Chondrosarcoma)
# test: combination Emax (second highest fraction inhibited in the dose matrix, 72 h); higher = more inhibition; extreme values may be limits of the assay
test_readout: combination Emax

• Cc1cc2ncnn2cc1Nc1ncc2c(n1)n(C1CCOCC1)c(=O)n2C [AZD7648] + O=C(c1cc(Cc2n[nH]c(=O)c3ccccc23)ccc1F)N1CCN(C(=O)C2CC2)CC1 [Olaparib] (first compound max 10 µM, 7x7, partner max 10 µM) = 0.252
• CN(CCO)CC[C@H](CSc1ccccc1)Nc1ccc(S(=O)(=O)NC(=O)c2ccc(N3CCC([C@@H](O)c4ccccc4-c4ccc(Cl)cc4)CC3)cc2)cc1S(=O)(=O)C(F)(F)F [AZD4320] + C1CN(CCC1(C(=O)N[C@@H](CCO)C2=CC=C(C=C2)Cl)N)C3=NC=NC4=C3C=CN4 [Capivasertib] (first compound max 1 µM, 7x7, partner max 3 µM) = 0.524
• Cc1c2c(nn1C)CSCc1cc(n(C)n1)CSc1cc(c3ccccc3c1)OCCCc1c(C(=O)O)n(C)c3c-2c(Cl)ccc13 [AZD5991] + CC1(C)CCC(CN2CCN(c3ccc(C(=O)NS(=O)(=O)c4ccc(NCC5CCOCC5)c([N+](=O)[O-])c4)c(Oc4cnc5[nH]ccc5c4)c3)CC2)=C(c2ccc(Cl)cc2)C1 [Venetoclax] (first compound max 1 µM, 7x7, partner max 1 µM) = 0.796

###

# System: 697 (B-Lymphoblastic Leukemia)
# test: Bliss excess, mean over the matrix (fraction); higher = more synergy
test_readout: Bliss excess

* C=CCn1c(=O)c2cnc(Nc3ccc(N4CCN(C)CC4)cc3)nc2n1-c1cccc(C(C)(C)O)n1 [AZD1775] + O=C(c1cc(Cc2n[nH]c(=O)c3ccccc23)ccc1F)N1CCN(C(=O)C2CC2)CC1 [Olaparib] (first compound max 1 µM, partner max 10 µM) | 0.0782
* COc1cccc(OCCCN)c1-c1cc(Nc2cnc(C#N)cn2)n[nH]1 [Prexasertib] + CCc1c2c(nc3ccc(O)cc13)-c1cc3c(c(=O)n1C2)COC(=O)[C@]3(O)CC [SN-38] (first compound max 1 µM, 7x7, partner max 0.3 µM) | 0.0017
* CC(=O)c1c(C)c2cnc(Nc3ccc(N4CCNCC4)cn3)nc2n(C2CCCC2)c1=O [Palbociclib] + CC1(C)CCC(CN2CCN(c3ccc(C(=O)NS(=O)(=O)c4ccc(NCC5CCOCC5)c([N+](=O)[O-])c4)c(Oc4cnc5[nH]ccc5c4)c3)CC2)=C(c2ccc(Cl)cc2)C1 [Venetoclax] (first compound max 10 µM, 7x7, partner max 1 µM) | -0.0738
* COc1cc2c(cc1OCCCCCOc1cc3c(cc1OC)C(=O)N1C=C(C)C[C@H]1C=N3)N=C[C@@H]1CC(C)=CN1C2=O [SG3199] + O=C(c1cc(Cc2n[nH]c(=O)c3ccccc23)ccc1F)N1CCN(C(=O)C2CC2)CC1 [Olaparib] (first compound max 0.001 µM, 7x7, partner max 10 µM) | 0.0376
* CC1(C)CCC(CN2CCN(c3ccc(C(=O)NS(=O)(=O)c4ccc(NCC5CCOCC5)c([N+](=O)[O-])c4)c(Oc4cnc5[nH]ccc5c4)c3)CC2)=C(c2ccc(Cl)cc2)C1 [Venetoclax] + C[C@@H](Nc1cc(F)cc(F)c1)c1cc(C(=O)N(C)C)cc2c(=O)cc(N3CCOCC3)oc12 [AZD8186] (first compound max 1 µM, 7x7, partner max 3 µM) | -0.0458
* COc1cccc(OCCCN)c1-c1cc(Nc2cnc(C#N)cn2)n[nH]1 [Prexasertib] + O=C(c1cc(Cc2n[nH]c(=O)c3ccccc23)ccc1F)N1CCN(C(=O)C2CC2)CC1 [Olaparib] (first compound max 1 µM, 7x7, partner max 10 µM) | 0.0371
* COc1cc2ncnc(Nc3ccc(F)c(Cl)c3)c2cc1OCCCN1CCOCC1 [Gefitinib] + CC(C)n1c(=O)n(C)c2cnc3cc(F)c(-c4ccc(OCCCN5CCCCC5)nc4)cc3c21 [AZD1390] (first compound max 10 µM, 7x7, partner max 0.3 µM) | -0.0787

###

Reported Bliss excess is given for each of the following molecules.
# System: MFH-ino (Other Solid Carcinomas)
# test: Bliss excess, mean over the matrix (fraction); higher = more synergy
test_readout: Bliss excess

- COc1nnc2ccc(N3CCC(c4ccc(OCCN5CCN(C)C(=O)[C@H]5C)cc4)CC3)nn12 [AZD5153] + C[C@@H]1COCCN1C2=NC(=NC(=C2)C3(CC3)[S@](=N)(=O)C)C4=C5C=CNC5=NC=C4 [AZD6738] (first compound max 1 µM, 7x7, partner max 10 µM): -0.0801
- Cc1c2c(nn1C)CSCc1cc(n(C)n1)CSc1cc(c3ccccc3c1)OCCCc1c(C(=O)O)n(C)c3c-2c(Cl)ccc13 [AZD5991] + Cc1cc2ncnn2cc1Nc1ncc2c(n1)n(C1CCOCC1)c(=O)n2C [AZD7648] (first compound max 1 µM, 7x7, partner max 10 µM): -0.018

###

# System: G-292-Clone-A141B1 (Osteosarcoma)
# test: Bliss excess, mean over the matrix (fraction); higher = more synergy
Listing of entries alongside the reported Bliss excess.
test_readout: Bliss excess

- Cc1c2c(nn1C)CSCc1cc(n(C)n1)CSc1cc(c3ccccc3c1)OCCCc1c(C(=O)O)n(C)c3c-2c(Cl)ccc13 [AZD5991] + CC(=O)O[C@H]1C(=O)[C@@]2(C)[C@H]([C@H](OC(=O)c3ccccc3)[C@]3(O)C[C@H](OC(=O)[C@H](O)[C@@H](NC(=O)c4ccccc4)c4ccccc4)C(C)=C1C3(C)C)[C@]1(OC(C)=O)CO[C@@H]1C[C@@H]2O [Paclitaxel] (first compound max 1 µM, 7x7, partner max 3 µM): 0.0565
- COc1cccc(OCCCN)c1-c1cc(Nc2cnc(C#N)cn2)n[nH]1 [Prexasertib] + Cc1cc2ncnn2cc1Nc1ncc2c(n1)n(C1CCOCC1)c(=O)n2C [AZD7648] (first compound max 1 µM, 7x7, partner max 10 µM): -0.049
- C[C@@H](Nc1cc(F)cc(F)c1)c1cc(C(=O)N(C)C)cc2c(=O)cc(N3CCOCC3)oc12 [AZD8186] + CC(=O)c1c(C)c2cnc(Nc3ccc(N4CCNCC4)cn3)nc2n(C2CCCC2)c1=O [Palbociclib] (first compound max 10 µM, 7x7, partner max 10 µM): -0.0001
- NC1(C(=O)N[C@@H](CCO)c2ccc(Cl)cc2)CCN(c2ncnc3[nH]ccc23)CC1 [Capivasertib] + CC(=O)c1c(C)c2cnc(Nc3ccc(N4CCNCC4)cn3)nc2n(C2CCCC2)c1=O [Palbociclib] (first compound max 10 µM, 7x7, partner max 10 µM): 0.0166
- CN(CCO)CC[C@H](CSc1ccccc1)Nc1ccc(S(=O)(=O)NC(=O)c2ccc(N3CCC([C@@H](O)c4ccccc4-c4ccc(Cl)cc4)CC3)cc2)cc1S(=O)(=O)C(F)(F)F [AZD4320] + Nc1ccn([C@@H]2O[C@H](CO)[C@@H](O)C2(F)F)c(=O)n1 [Gemcitabine] (first compound max 1 µM, 7x7, partner max 0.3 µM): -0.0015
- Cc1c2c(nn1C)CSCc1cc(n(C)n1)CSc1cc(c3ccccc3c1)OCCCc1c(C(=O)O)n(C)c3c-2c(Cl)ccc13 [AZD5991] + C[C@@H]1COCCN1C2=NC(=NC(=C2)C3(CC3)[S@](=N)(=O)C)C4=C5C=CNC5=NC=C4 [AZD6738] (first compound max 1 µM, 7x7, partner max 10 µM): -0.001
